EXPERIMENTAL_TARGET: T1, human PD-L1 on hPD-L1/CHO-K1 overexpressing cells (human, UniProt Q9NZQ7 19-290)
T1 construct: whole, on cells; also called human PD-L1-expressing cells
T1 sequence (Q9NZQ7 19-290): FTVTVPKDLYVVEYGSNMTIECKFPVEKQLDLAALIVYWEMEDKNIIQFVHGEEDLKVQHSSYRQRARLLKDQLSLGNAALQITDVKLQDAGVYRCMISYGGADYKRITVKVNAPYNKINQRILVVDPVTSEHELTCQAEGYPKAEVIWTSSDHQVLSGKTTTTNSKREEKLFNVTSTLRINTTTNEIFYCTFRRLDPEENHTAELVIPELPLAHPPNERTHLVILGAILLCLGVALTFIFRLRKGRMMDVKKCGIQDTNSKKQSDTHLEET
METHOD: flow cytometry on hPD-L1/CHO-K1 cells (sheet label hPD-1/CHO-K1)
MEASURED_ENDPOINT: Geo Mean in M1
Please reply with the value in numeric form only.

Sample records with Geo Mean in M1:
ME4 anti-PD-L1 antibody (IgG form) (antibody, V domains shown, Converted to IgG with the vectors pIgGHD-6A6Hvy and pIgGLD-6A6Lgt; Expressed in Expi293F cells) VH: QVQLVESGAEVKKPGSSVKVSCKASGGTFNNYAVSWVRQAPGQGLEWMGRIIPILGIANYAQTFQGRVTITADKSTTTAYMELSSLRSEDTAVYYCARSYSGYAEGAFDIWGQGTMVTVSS VL: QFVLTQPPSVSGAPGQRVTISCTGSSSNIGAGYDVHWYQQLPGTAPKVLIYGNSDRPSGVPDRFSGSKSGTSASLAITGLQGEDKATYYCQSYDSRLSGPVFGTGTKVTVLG
34.4
ME4.A11 anti-PD-L1 antibody (IgG form) (antibody, V domains shown) VH: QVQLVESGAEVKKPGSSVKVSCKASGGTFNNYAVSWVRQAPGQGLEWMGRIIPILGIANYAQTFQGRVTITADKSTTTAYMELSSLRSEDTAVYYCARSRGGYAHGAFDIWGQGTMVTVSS VL: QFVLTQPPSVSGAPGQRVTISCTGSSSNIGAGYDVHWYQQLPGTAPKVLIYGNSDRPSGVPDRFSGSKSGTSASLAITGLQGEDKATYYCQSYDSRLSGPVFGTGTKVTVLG
19.4

Here is another binder to look at.
Enquiry: Given ME4.A2 anti-PD-L1 antibody (IgG form) (antibody, V domains shown) VH: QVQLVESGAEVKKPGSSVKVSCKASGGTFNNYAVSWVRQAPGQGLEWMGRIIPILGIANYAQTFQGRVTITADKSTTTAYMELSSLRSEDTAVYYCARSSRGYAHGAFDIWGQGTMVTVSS VL: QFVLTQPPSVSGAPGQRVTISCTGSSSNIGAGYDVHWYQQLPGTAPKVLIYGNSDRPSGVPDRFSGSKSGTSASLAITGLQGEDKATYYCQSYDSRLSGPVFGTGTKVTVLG , state its recorded Geo Mean in M1.
Return: 29.1
